Target: PSG G322A G335A (PSD-95)
Assay: FP displacement (competition) of FITC-15 AA CRIPT by library peptide, IC50 and Ki
Conditions: read-out: IC50 (µM), PSG G322A G335A; FP displacement of FITC-15 AA CRIPT probe by acetylated PSD library peptide (P-13 to P0 plus extra N-terminal Y)
property-measured: IC50 (µM)
Note: unit µM is implicit; provide only the numeric part.

// query # assay system PSG G322A G335A (PSD-95): give IC50 of CC(=O)N[C@@H](Cc1ccc(O)cc1)C(=O)N[C@@H](C)C(=O)N1CCC[C@H]1C(=O)N[C@@H](C)C(=O)N[C@H](C(=O)N[C@@H](CO)C(=O)N1CCC[C@H]1C(=O)N1CCC[C@H]1C(=O)N[C@@H](CCC(=O)O)C(=O)N[C@@H](CCCNC(=N)N)C(=O)N[C@@H](C)C(=O)N[C@@H](CC(C)C)C(=O)N[C@@H](CO)C(=O)N[C@@H](CCCCN)C(=O)N[C@@H](CC(C)C)C(=O)O)[C@@H](C)O [TUTLB]
// result 1810
